# Assay comment: Solubility in water
# Assay type: physicochemical
# Protocol conditions: water, room temperature; figure in parentheses; read-out: Solubility in water at room temperature
Readout kind: solubility (mg/mL)
Write it as a number; the unit mg/mL goes unstated.

*Q* I would be grateful if you could share the reported solubility for CC(=O)Nc1c(I)c(NC(C)=O)c(I)c(C(=O)N(C)C[C@H](O)[C@@H](O)[C@H](O)[C@H](O)CO)c1I .
*A* 79

*Q* I would be grateful if you could share the reported solubility for CC(=O)Nc1c(I)c(C(=O)N(CCO)CCO)c(I)c(N(C)C(C)=O)c1I .
*A* 213

*Q* I would be grateful if you could share the reported solubility for CC(=O)N(C)c1c(I)c(C(=O)NCC(O)CO)c(I)c(N(CCO)C(C)=O)c1I (stereo not drawn) .
*A* 2.6

---

# Test system: mice
# Assay comment: Intravenous toxicity in mice (LD50)
# Type: in vivo
# Protocol conditions: concentration administered 300 mgI/ml
Readout kind: Intravenous LD50 (mgI/kg)
Write it as a number; the unit mgI/kg goes unstated.

*Q* Enter reported Intravenous LD50 observed with mice for CC(=O)N(C)c1c(I)c(C(=O)N[C@H]2C(O)O[C@H](CO)[C@@H](O)[C@@H]2O)c(I)c(N(CCO)C(C)=O)c1I (stereo partly drawn)
*A* 8250

*Q* Enter reported Intravenous LD50 observed with mice for CC(=O)Nc1c(I)c(C(=O)N(C)C[C@H](O)[C@@H](O)[C@H](O)[C@H](O)CO)c(I)c(N(C)C(C)=O)c1I
*A* 6000

*Q* Enter reported Intravenous LD50 observed with mice for CNC(=O)c1c(I)c(NC(C)=O)c(I)c(C(=O)N(CCO)C[C@H](O)[C@@H](O)[C@H](O)[C@H](O)CO)c1I
*A* 15000

---

# Assay comment: Solubility in water
# Type: physicochemical
# Protocol conditions: water, room temperature; figure in parentheses; read-out: Solubility in water at room temperature
Readout kind: solubility (mg/mL)
Write it as a number; the unit mg/mL goes unstated.

*Q* I would be grateful if you could share the reported solubility for CC(=O)N(C)c1c(I)c(C(=O)NCCO)c(I)c(N(CCO)C(C)=O)c1I .
*A* 4

*Q* I would be grateful if you could share the reported solubility for CC(=O)N(CCO)c1c(I)c(C(=O)NCCO)c(I)c(N(CCO)C(C)=O)c1I .
*A* 214

*Q* I would be grateful if you could share the reported solubility for CC(=O)N(C)c1c(I)c(C(=O)N(C)CCO)c(I)c(N(CCO)C(C)=O)c1I .
*A* 255

*Q* I would be grateful if you could share the reported solubility for CC(=O)N(C)c1c(I)c(C(=O)NC(CO)(CO)CO)c(I)c(N(CCO)C(C)=O)c1I .
*A* 8.6

---

# Assay comment: Osmolality of aqueous solution
# Format: physicochemical
# Protocol conditions: 37° C.; 300 mg I/ml
Readout kind: Osmolality (mol/kg)
Write it as a number; the unit mol/kg goes unstated.

*Q* I would be grateful if you could share the reported Osmolality for CC(=O)N(CCO)c1c(I)c(C(=O)N(C)CC(O)CO)c(I)c(N(CCO)C(C)=O)c1I (centres unmarked) .
*A* 0.53

*Q* I would be grateful if you could share the reported Osmolality for CC(=O)Nc1c(I)c(C(=O)N(C)C[C@H](O)[C@@H](O)[C@H](O)[C@H](O)CO)c(I)c(N(C)C(C)=O)c1I .
*A* 0.47

*Q* I would be grateful if you could share the reported Osmolality for CC(=O)Nc1c(I)c(C(=O)NC[C@H](O)[C@@H](O)[C@H](O)[C@H](O)CO)c(I)c(N(C)C(C)=O)c1I .
*A* 0.48

*Q* I would be grateful if you could share the reported Osmolality for CC(=O)Nc1c(I)c(C(=O)N[C@H]2C(O)O[C@H](CO)[C@@H](O)[C@@H]2O)c(I)c(N(C)C(C)=O)c1I (some centres unmarked) .
*A* 0.48

*Q* I would be grateful if you could share the reported Osmolality for CC(=O)N(C)c1c(I)c(C(=O)N(C)C[C@H](O)[C@@H](O)[C@H](O)[C@H](O)CO)c(I)c(N(CCO)C(C)=O)c1I .
*A* 0.61

---

Would you mind telling me the reported solubility of each entry?
# Assay comment: Solubility in water
# Format: physicochemical
# Protocol conditions: water, room temperature; read-out: Solubility in water at room temperature (class)

*Q* I would be grateful if you could share the reported solubility for CC(=O)N(CCO)c1c(I)c(C(=O)NCCO)c(I)c(N(CCO)C(C)=O)c1I [Compound 45] .
*A* 200 to 500 mg/mL

*Q* I would be grateful if you could share the reported solubility for CC(=O)NCc1c(I)c(NC(C)=O)c(I)c(C(=O)N(C)C[C@H](O)[C@@H](O)[C@H](O)[C@H](O)CO)c1I [Compound 7] .
*A* > 500 mg/mL

*Q* I would be grateful if you could share the reported solubility for CC(=O)N(CCO)c1c(I)c(C(=O)N(C)CC(O)CO)c(I)c(N(CCO)C(C)=O)c1I (stereo not shown) [Compound 44] .
*A* > 500 mg/mL

*Q* I would be grateful if you could share the reported solubility for CC(=O)N(CCO)c1c(I)c(C(=O)N(CCO)CCO)c(I)c(N(CCO)C(C)=O)c1I [Compound 5] .
*A* > 500 mg/mL

*Q* I would be grateful if you could share the reported solubility for CC(=O)OCCN(C(C)=O)c1c(I)c(C(=O)N(C)C[C@H](O)[C@@H](O)[C@H](O)[C@H](O)CO)c(I)c(N(C)C(C)=O)c1I [Compound 36] .
*A* 200 to 500 mg/mL

*Q* I would be grateful if you could share the reported solubility for CC(=O)N(C)c1c(I)c(C(=O)NCCO)c(I)c(N(CCO)C(C)=O)c1I [Compound 37] .
*A* < 200 mg/mL

*Q* I would be grateful if you could share the reported solubility for CC(=O)Nc1c(I)c(NC(C)=O)c(I)c(C(=O)N(C)C[C@H](O)[C@@H](O)[C@H](O)[C@H](O)CO)c1I [Compound 25] .
*A* < 200 mg/mL

---

# Assay comment: Solubility in water
# Format: physicochemical
# Protocol conditions: water, room temperature; read-out: Solubility in water at room temperature (class)
Readout kind: solubility

*Q* I would be grateful if you could share the reported solubility for CC(=O)N(CCO)c1c(I)c(C(=O)N[C@H]2C(O)O[C@H](CO)[C@@H](O)[C@@H]2O)c(I)c(N(CCO)C(C)=O)c1I (some centres unmarked) .
*A* > 500 mg/mL

*Q* I would be grateful if you could share the reported solubility for CC(=O)N(C)c1c(I)c(C(=O)N[C@H]2C(O)O[C@H](CO)[C@@H](O)[C@@H]2O)c(I)c(N(CCO)C(C)=O)c1I (some centres unmarked) .
*A* > 500 mg/mL

*Q* I would be grateful if you could share the reported solubility for CC(=O)N(C)c1c(I)c(C(=O)N(C)CCO)c(I)c(N(CCO)C(C)=O)c1I .
*A* 200 to 500 mg/mL

*Q* I would be grateful if you could share the reported solubility for CC(=O)Nc1c(I)c(C(=O)N(C)CC(O)CO)c(I)c(C(=O)N(C)CC(O)CO)c1I (centres unmarked) .
*A* > 500 mg/mL

*Q* I would be grateful if you could share the reported solubility for CC(=O)Nc1c(I)c(C(=O)N(CCO)CCO)c(I)c(N(C)C(C)=O)c1I .
*A* 200 to 500 mg/mL

*Q* I would be grateful if you could share the reported solubility for CC(=O)N(C)c1c(I)cc(I)c(C(=O)N(C)C[C@H](O)[C@@H](O)[C@H](O)[C@H](O)CO)c1I .
*A* > 500 mg/mL

*Q* I would be grateful if you could share the reported solubility for CC(=O)N(C)c1c(I)c(C(=O)N(C)CC(O)CO)c(I)c(N(CCO)C(C)=O)c1I (centres unmarked) .
*A* > 500 mg/mL

*Q* I would be grateful if you could share the reported solubility for CC(=O)Nc1c(I)c(C(=O)NC[C@H](O)[C@@H](O)[C@H](O)[C@H](O)CO)c(I)c(N(C)C(C)=O)c1I .
*A* > 500 mg/mL

*Q* I would be grateful if you could share the reported solubility for CC(=O)N(CCO)c1c(I)c(C(=O)N(C)C[C@H](O)[C@@H](O)[C@H](O)[C@H](O)CO)c(I)c(N(CCO)C(C)=O)c1I .
*A* > 500 mg/mL

*Q* I would be grateful if you could share the reported solubility for CC(=O)Nc1c(I)c(C(=O)N[C@@H](CO)[C@@H](O)[C@H](O)[C@H](O)CO)c(I)c(N(C)C(C)=O)c1I .
*A* > 500 mg/mL

*Q* I would be grateful if you could share the reported solubility for CC(=O)N(C)c1c(I)cc(I)c(C(=O)NC[C@H](O)[C@@H](O)[C@H](O)[C@H](O)CO)c1I .
*A* > 500 mg/mL

*Q* I would be grateful if you could share the reported solubility for CC(=O)N(C)c1c(I)cc(I)c(C(=O)N[C@H]2C(O)O[C@H](CO)[C@@H](O)[C@@H]2O)c1I (some centres unmarked) .
*A* > 500 mg/mL

*Q* I would be grateful if you could share the reported solubility for CC(=O)N(C)c1c(I)c(C(=O)N(CCO)CCO)c(I)c(N(CCO)C(C)=O)c1I .
*A* > 500 mg/mL

*Q* I would be grateful if you could share the reported solubility for CC(=O)N(C)c1c(I)c(C(=O)NCC(O)CO)c(I)c(N(CCO)C(C)=O)c1I (centres unmarked) .
*A* < 200 mg/mL

*Q* I would be grateful if you could share the reported solubility for CC(=O)Nc1c(I)c(C(=O)N[C@H]2C(O)O[C@H](CO)[C@@H](O)[C@@H]2O)c(I)c(N(C)C(C)=O)c1I (some centres unmarked) .
*A* > 500 mg/mL

*Q* I would be grateful if you could share the reported solubility for CC(=O)Nc1c(I)c(C(=O)N(C)C[C@H](O)[C@@H](O)[C@H](O)[C@H](O)CO)c(I)c(N(C)C(C)=O)c1I .
*A* > 500 mg/mL

*Q* I would be grateful if you could share the reported solubility for CC(=O)Nc1c(I)cc(I)c(C(=O)N(C)C[C@H](O)[C@@H](O)[C@H](O)[C@H](O)CO)c1I .
*A* > 500 mg/mL

The reported numbers originate from patent US4021481A.
